Reference for the values: ChEMBL document CHEMBL6121063

# Experiment Summary: Apparent permeability across apical to basolateral side in human Caco-2 cells at 2 uM measured after 60 mins by HPLC analysis
# Format: ADME, cell-based
Endpoint: Papp A→B at 1 h, 2 µM (×10⁻⁶ cm/s)

O=C1CCC(Nc2cccc(N3CCN(CC4CCN(CC(=O)N5CCC(NC(=O)c6n[nH]cc6NC(=O)c6c(Cl)cccc6Cl)CC5)CC4)CC3)c2)C(=O)N1 (stereo not drawn): 1.81
O=C1CCC(N2C(=O)c3ccc(N4CCN(CC5CCN(CC(=O)N6CCC(NC(=O)c7n[nH]cc7NC(=O)c7c(Cl)cccc7Cl)CC6)CC5)CC4)cc3C2=O)C(=O)N1 (stereo not drawn): 0.326
CC(C)NCC(O)COc1cccc2ccccc12 (stereo not drawn) [PROPRANOLOL]: 9.64
